This collection of values is drawn from ChEMBL document CHEMBL4613308.

Exercise: for every item that follows, state its recorded MIC.
Tested on: Bacillus spizizenii
Assay: Antibacterial activity against Bacillus subtilis ATCC 6633 assessed as bacterial growth inhibition by agar diffusion assay
Assay type: functional

What does the record list as MIC for "CCOC(=O)c1cn(CC)c2cc(N)c(F)cc2c1=O" ?
32 µg/mL

Try this compound next: "CC(C)(C)n1cc(C(=O)O)c(=O)c2cc(F)c(-c3cccnc3)cc21"
≤ 0.12 µg/mL

Try the compound "CC(C)(C)n1cc(C(=O)O)c(=O)c2cc(F)c(Sc3ccccc3)cc21"
≤ 0.12 µg/mL

What about "COc1ccc(-c2cc3c(cc2F)c(=O)c(C(=O)O)cn3C(C)(C)C)cc1" ?
≤ 0.12 µg/mL

Continue with CCOC(=O)c1cn2c3c(cccc3c1=O)OCC2CC (centres undefined)
128 µg/mL

Then what about the compound "O=C(O)c1cn(C2CC2)c2cc(Br)c(F)cc2c1=O" ?
≤ 0.12 µg/mL

Then "COc1ccc(CNC(=O)c2c(O)c3cc(-c4cccnc4)ccc3n(CCCCO)c2=O)cc1" ?
0.12 µg/mL

Please do the same for "CC(C)(C)n1cc(C(=O)O)c(=O)c2cc(F)c(-c3ccc(F)cc3F)cc21" as well.
≤ 0.12 µg/mL

Okay, and "CC(C)(C)n1cc(C(=O)O)c(=O)c2cc(F)c(Br)cc21" ?
≤ 0.12 µg/mL

---

Record form. Attribute: MIC. Fill in for each entry.
System: Klebsiella pneumoniae
Test: Synergistic antibacterial activity against Klebsiella pneumoniae ATCC 13833 in presence of 0.5 times MIC of colistin by microdilution broth method
Type: functional
Reply with just the number (in µg/mL).

If you can, please state the reported MIC value of "Cc1c(C(=O)N(C)CCN(C)C)nn(-c2ccc(Cl)cc2)c1-n1cccc1" .
32

Do the same for "CC(C)c1ccc2c(c1)c(O)c(C(C)C)c(=O)n2CC(C)(C)C" please
64

Then what about the molecule "CCCCCc1cc(O)cc(OCCCCCCCCCCC(=O)NC(CO)CO)c1" ?
8

Same question for "CCCCCCC(C)(C)c1cc(O)cc(OCCCCCCCC(=O)NCCO)c1" please.
4

Would you mind doing "CCCCCc1cc(OC)cc(OCCCCCCCC(=O)NCCO)c1" as well?
8

Next molecule: "CCOC(=O)c1c(O)nc2c(C)cccc2c1O"
16

Now this one: "CCCCCCc1ccc(OCCCCCCCC(=O)NCCO)cc1O"
4

Now give it for "CCCCCc1cc(O)cc(OCCCCCCCCCCC(=O)NCCO)c1" too.
4

Same question for "O=C(NCc1ccc2c(c1)OCO2)c1cnn(-c2ccccc2)c1-n1cccc1" please.
64

Then what about the molecule "COc1ccc(CNC(=O)c2c(O)c3cc(-c4cccnc4)ccc3n(CCCCO)c2=O)cc1" ?
64

For "CCCCCCc1ccc(O)cc1OCCCCCCCCCCC(=O)NCCO" then?
8

Try this molecule next: "CCCCCc1cc(O)cc(OCCCCCCCCCCCC(=O)NCCO)c1"
8

---

System: Klebsiella pneumoniae
Experiment: Synergistic antibacterial activity against colistin-resistant Klebsiella pneumoniae SI-081R clinical isolate in presence of 2 ug/ml colistin by microdilution broth method (reference value: 256 ug/ml)
Format: functional
Metric Name: MIC

Fill in the blank: the reported MIC of "CCCCCc1cc(OC)cc(OCCCCCCCC(=O)NCCO)c1" is ____.
18 µg/mL

Lookup "CCCCCc1cc(O)cc(OCCCCCCCCCCCC(=O)NCCO)c1"
> 64 µg/mL

Subsequent entry: "O=C(NCc1ccc2c(c1)OCO2)c1cnn(-c2ccccc2)c1-n1cccc1"
> 64 µg/mL

Similarly, "CCCCCc1cc(O)cc(OCCCCCCCCCCC(=O)NCCO)c1" ?
> 64 µg/mL
